Data origin, for the record: the supplement of paper PMC10065799

As shown below, each of these sequences has a reported phosphorylation enrichment value.
EXPERIMENTAL_TARGET: MERTK (UniProt Q12866)
Sequence (Q12866 whole entry, looked up): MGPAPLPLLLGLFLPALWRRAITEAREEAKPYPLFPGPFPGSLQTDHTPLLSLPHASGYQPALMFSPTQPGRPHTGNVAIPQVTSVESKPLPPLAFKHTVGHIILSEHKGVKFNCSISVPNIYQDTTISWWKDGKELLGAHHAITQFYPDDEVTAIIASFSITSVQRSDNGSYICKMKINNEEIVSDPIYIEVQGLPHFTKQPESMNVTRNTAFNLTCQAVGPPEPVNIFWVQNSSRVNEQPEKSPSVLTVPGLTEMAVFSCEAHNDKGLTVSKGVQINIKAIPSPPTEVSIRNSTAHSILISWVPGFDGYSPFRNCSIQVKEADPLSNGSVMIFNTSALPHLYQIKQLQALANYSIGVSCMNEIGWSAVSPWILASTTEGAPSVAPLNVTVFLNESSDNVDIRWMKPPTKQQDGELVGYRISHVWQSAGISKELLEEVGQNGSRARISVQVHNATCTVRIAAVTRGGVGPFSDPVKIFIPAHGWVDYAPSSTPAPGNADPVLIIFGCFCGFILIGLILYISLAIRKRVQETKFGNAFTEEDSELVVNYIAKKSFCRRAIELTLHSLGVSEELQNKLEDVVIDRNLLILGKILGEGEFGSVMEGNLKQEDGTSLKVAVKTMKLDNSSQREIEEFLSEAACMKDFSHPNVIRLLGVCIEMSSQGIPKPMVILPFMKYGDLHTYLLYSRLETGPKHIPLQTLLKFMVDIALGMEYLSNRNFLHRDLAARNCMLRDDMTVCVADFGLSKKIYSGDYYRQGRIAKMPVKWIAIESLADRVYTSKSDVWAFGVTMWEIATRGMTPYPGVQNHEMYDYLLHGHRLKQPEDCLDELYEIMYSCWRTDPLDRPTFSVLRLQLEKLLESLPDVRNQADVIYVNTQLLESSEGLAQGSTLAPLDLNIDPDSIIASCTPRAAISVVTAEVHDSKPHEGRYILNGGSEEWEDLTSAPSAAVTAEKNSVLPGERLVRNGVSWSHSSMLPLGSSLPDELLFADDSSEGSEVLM
PROCEDURE_TEXT: phosphorylation enrichment, bacterial display (enrichment ratio); higher = better substrate or ligand; peptides without Tyr show the background;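 further: 11-residue human phosphosite peptides and single-mutation variants displayed on the E. coli surface, counted by deep sequencing, each peptide's frequency after selection divided by its frequency in the unselected input library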;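 further: frequency after pTyr selection over input frequency; kinase dosed for 20-30% of maximal phosphorylation in three min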

Consider the worked cases shown below.
INSERT INTO assay_data (sequence_input, quantity_name, test_value) VALUES
  ('MFQVQYNSSVD [LRFN1_Y458_YF]', 'phosphorylation enrichment', 0.398),
  ('FPSLPYSPVSS [CAMKK2_Y128_C123Y_YF]', 'phosphorylation enrichment', 0.489),
  ('LLLLFYVVRYC [MPZ_Y177]', 'phosphorylation enrichment', 0.54);

# context switch: different sequence, same phosphorylation enrichment
### Prompt Short answer please: phosphorylation enrichment, MERTK (UniProt Q12866), entry QHNPEYVQQAT [LRRC7_Y1058_S1063T]
### Response 0.238
